Let's look at some compounds and their measured MIC.
System: Klebsiella pneumoniae
METHOD_NOTES: Antibacterial activity against Klebsiella pneumoniae X26
Format: functional
CONDITION_CONTEXT: Klebsiella pneumoniae; read-out: MIC
// return numeric value only (unit: µg/mL, not printed)

Here's what some known entries look like.
>  <COMPOUND>
CO/N=C(\C(=O)N[C@@H]1C(=O)N2C(C(=O)[O-])=C(C[n+]3cccc4occc43)CS[C@H]12)c1csc(N)n1

>  <MIC (µg/mL)>
0.06

$$$$
>  <COMPOUND>
CO/N=C(\C(=O)N[C@@H]1C(=O)N2C(C(=O)[O-])=C(C[n+]3ccc4c(S(=O)(=O)O)cccc4c3)CS[C@H]12)c1csc(N)n1

>  <MIC (µg/mL)>
0.03

$$$$
>  <COMPOUND>
CO/N=C(\C(=O)N[C@@H]1C(=O)N2C(C(=O)[O-])=C(C[n+]3cccc4ncccc43)CS[C@H]12)c1csc(N)n1

>  <MIC (µg/mL)>
0.06

$$$$
>  <COMPOUND>
CO/N=C(\C(=O)N[C@@H]1C(=O)N2C(C(=O)[O-])=C(C[n+]3ccc(CC(=O)NO)cc3)CS[C@H]12)c1csc(N)n1 (stereo in doubt; 9)

>  <MIC (µg/mL)>
0.03

$$$$

With those in mind, consider the next compound.
For Klebsiella pneumoniae, give the measured MIC of the entry `CO/N=C(\C(=O)N[C@@H]1C(=O)N2C(C(=O)[O-])=C(C[n+]3ccc4scnc4c3)CS[C@H]12)c1csc(N)n1`
0.015

Measured values drawn from ChEMBL document CHEMBL1124865 for this set.
